# assayNotes: reversal of MRP1-mediated doxorubicin resistance, pilot screen, H69AR cells, doxorubicin co-treatment (AID 601)
# protocolConditions: H69AR cells, CellTiter-Glo, 72 h; compound alone cytotoxicity; at 10 µM
quantityKind: viability (%)
Numbers only, in %.

INSERT INTO measurements (molecule, quantitykind, readoutvalue) VALUES
  ('Cc1nc2sc(C(c3cccc(F)c3)N3CCN(C(=O)c4ccco4)CC3)c(O)n2n1 (configuration not stated)', 'viability', 99.3),
  ('CCOC(=O)C1C(=O)OC(C)(C)C1C(C)C(=O)c1ccc(OC)cc1 (configuration not stated)', 'viability', 96),
  ('CCOC(=O)c1ccc(NS(=O)(=O)c2ccc3c(c2)CCCN3C(C)=O)cc1', 'viability', 89.8),
  ('CCN(CC)C(c1ccc(C)cc1)c1nnnn1C1CCCCC1 (configuration not stated)', 'viability', 75.5),
  ('COc1ccc(N2CCN(c3oc(COc4ccccc4)nc3C#N)CC2)cc1', 'viability', 101),
  ('CCOC(=O)C1CCCN(c2nc3ccccc3nc2C(C#N)C(=O)NCc2ccccc2)C1 (configuration not stated)', 'viability', 86.2),
  ('COc1ccc(OCC(=O)Nc2ccc(N3CCOCC3)c(Cl)c2)cc1', 'viability', 90.3),
  ('COc1ccc(CCNC(=O)CSCc2n[nH]c(=O)[nH]2)cc1OC', 'viability', 88.5),
  ('N#C/C(C(=O)NCc1ccco1)=C1/SC(Cc2ccc(F)cc2)C(=O)N1c1ccccc1 (configuration not stated)', 'viability', 48),
  ('Cn1c(=O)c2c(ncn2CC(O)CO)n(C)c1=O (configuration not stated)', 'viability', 107);

Give one value of viability per listed molecule.
1. O=C1NC(c2ccccc2)(C(F)(F)F)SC2=NCCCN12 (configuration not stated)
2. O=C1CN(C(=O)COC(=O)C23CC4CC(CC(O)(C4)C2)C3)c2ccccc2N1
3. COc1cc(NC(=O)Nc2cccc(Cl)c2)c(OC)cc1NC(=O)CN1CCCCC1
4. O=C(NC1CCc2ccccc21)C1CCN(S(=O)(=O)c2ccc(-n3cnnn3)cc2)CC1 (configuration not stated)

Key:
1. 97.2
2. 96.6
3. 3.06
4. 55

Give one value of viability per listed molecule.
1. OCCN1CCN(CCCN2c3ccccc3Sc3ccc(C(F)(F)F)cc32)CC1
2. CCSC1=C(C#N)C(c2cccc(OC)c2)CC(=O)N1 (configuration not stated)
3. Cc1cc(C)c2c(=O)[nH]c(=O)n(Cc3ccccc3)c2n1
4. COC(=O)c1ccc(COC(=O)c2c(C)nn(Cc3ccccc3Cl)c2Cl)o1
5. CCCCn1c(=O)[nH]c(=O)c2c1nc(COc1ccc(C#N)cc1)n2CCC
6. CN1CCc2c(sc3c2c(=O)n(-c2ccccc2)c2nnc(SCc4ccccc4)n32)C1
7. O=C(Nc1cccnc1)c1cc2c(ccc3ccccc32)o1

Key:
[1.03, 101, 95.7, 86.2, 88, 95.8, 84.9]

Exercise: Quick one: viability for O=C(Nc1cccc2ccccc12)N1CCN(c2ccccc2)CC1 ?
Key: 94.4

====

Please go through the items and note down their inhibition.
# assayNotes: 384-well plate pilot, post-Golgi transport modulator project, inhibition of yeast transport mutant growth (AID 636)
# protocolConditions: absorbance 615 nm, about 18 h, stronger effect = higher value
Give bare numbers, in %.

Please review the following examples before continuing.
INSERT INTO measurements (compound, quantitykind, readoutvalue) VALUES
  ('C=CCc1ccccc1OCC(O)CNC(C)C (stereo unspecified)', 'inhibition', -2.34),
  ('CN1CCN(c2nc3c(c(=O)[nH]c(=O)n3C)n2CCOc2ccccc2)CC1', 'inhibition', -6.49),
  ('O=C1CNCc2[nH]c3ccccc3c2N1c1ccccc1', 'inhibition', -3.95),
  ('CCC(=O)N(Cc1ccco1)c1nc(-c2cc(OC)ccc2OC)cs1', 'inhibition', -2),
  ('Cc1c(Cc2ccccc2)sc(N)c1C(N)=O', 'inhibition', -3.77);

Give one value of inhibition per listed compound.
1. Cc1cc(C)c2c(=O)[nH]c(=O)n(Cc3ccccc3)c2n1
2. CCn1ncc(C2=NOC(C(=O)NCc3ccc(Cl)cc3)C2)c1C (stereo unspecified)
3. COc1cc2[nH]c3c(=O)n(CCN(C(C)C)C(C)C)cnc3c2cc1OC
4. CCC(C)NC(=O)CCNS(=O)(=O)c1ccc(Br)cc1 (stereo unspecified)

Key:
[-5.26, -2.89, -6.89, -4.74]

Give one value of inhibition per listed compound.
1. Cc1ccc(OCC2Cn3c(nc4c3c(=O)n(C)c(=O)n4C)O2)cc1 (stereo unspecified)
2. COc1cc2c(cc1OC)C(/C(C#N)=N\O)=NC(C)(C)C2

Key:
[-8.36, -8.77]
